test system: KM12 colon; assay: NCI tumour cell line growth inhibition, 48 h
endpoint: TGI

Lab note: need TGI for Cc1ccc2nc3ccccc3c(C3C4C(=O)N(c5ccc(Br)cc5Cl)C(=O)C4ON3C(C(N)=O)c3ccccc3)c2c1 (stereo unspecified) on KM12 colon, anyone have it?
> 25 µM

Lab note: need TGI for CCC1c2[nH]c3ccccc3c2C[C@H]2C(=O)NC(CCC(=O)OC(C)(C)C)C(=O)N12 (stereo partly specified) on KM12 colon, anyone have it?
> 100 µM

Lab note: need TGI for Cc1c2c(nn1-c1ccc(S(=O)(=O)/N=C3\SCC(=O)N3C(=O)c3ccccc3)cc1)-c1ccccc1CC2 on KM12 colon, anyone have it?
> 100 µM

Lab note: need TGI for COc1cc2c3c(n(CCCCl)c(=O)c2cc1OC)-c1ccccc1C3=O on KM12 colon, anyone have it?
> 100 µM

Lab note: need TGI for COc1ccc(OC)c(/C=C/NC=O)c1 on KM12 colon, anyone have it?
> 100 µM

Lab note: need TGI for COC(=O)c1ccc2c(c1)n(Cc1ccc3ccccc3c1)c[n+]2Cc1ccc2ccccc2c1 on KM12 colon, anyone have it?
2.83 µM

Lab note: need TGI for NC1C2(CCCCCC2)NC(=O)C12CCCCCC2 (stereo unspecified) on KM12 colon, anyone have it?
> 100 µM

Lab note: need TGI for N#CC1=C(N2CCCC2)NC(=O)CC1=O on KM12 colon, anyone have it?
> 100 µM

Lab note: need TGI for N#CCCN(CCC#N)c1ccc(C(=O)NN)cc1 on KM12 colon, anyone have it?
> 100 µM

Lab note: need TGI for C=CCN1C(=O)/C(=C/c2ccccc2)NC1=S on KM12 colon, anyone have it?
> 100 µM

Lab note: need TGI for CC(=O)OC[C@H]1[C@@H]2C(CC[C@]13CO3)OC(=O)CC(C)[C@]2(C)CCc1ccoc1 (stereo partly specified) on KM12 colon, anyone have it?
> 100 µM

###

Consider the following molecules; for each one, report its TGI.
system: UACC-62 melanoma; experiment: NCI tumour cell line growth inhibition, 48 h

I'd like to know its TGI. The molecule in question is O=C1C2=C(CC3C(C2)C3(Br)Br)C(=O)C2=C1CC1C(C2)C1(Br)Br (configuration not stated)
> 100 µM

I'd like to know its TGI. The molecule in question is S=C1Cc2c([nH]c3ccccc23)-c2ccccc2N1
> 100 µM

I'd like to know its TGI. The molecule in question is COc1ccc(-c2c(C(C)=O)c(-c3ccccc3)n(C3OC(COC(C)=O)C(OC(C)=O)C(OC(C)=O)C3OC(C)=O)c(=S)c2C#N)cc1 (configuration not stated)
> 100 µM

I'd like to know its TGI. The molecule in question is O=c1c2ccccc2nnn1-c1n[nH]c2ccccc12
> 100 µM

I'd like to know its TGI. The molecule in question is O=[N+]([O-])c1ccccc1N=Nc1c(O)sc2ccccc12
> 100 µM

I'd like to know its TGI. The molecule in question is COc1cc(C(=O)O[C@H](C(N)=O)[C@]2(C)CO2)c2ccccc2c1
29.8 µM

I'd like to know its TGI. The molecule in question is Nc1ccc(C(=O)Nn2c(-c3ccccc3)nc3ccccc3c2=O)cc1
> 100 µM

I'd like to know its TGI. The molecule in question is Cc1cccc2c(N)c3cccc(C(=O)NCCCNCCN)c3nc12
19 µM

I'd like to know its TGI. The molecule in question is COC1(OC)C2(Cl)CCC1(Cl)C(OC(C)=O)C2 (configuration not stated)
> 100 µM

I'd like to know its TGI. The molecule in question is COc1ccc(C2CC(=O)c3c(O)c(OC)c(OC)c(OC)c3O2)c(O)c1 (configuration not stated)
20.2 µM

I'd like to know its TGI. The molecule in question is CSc1nc(Cl)c2c(n1)Sc1nc3cc4c(cc3n1C2O)OCO4 (configuration not stated)
14.2 µM

I'd like to know its TGI. The molecule in question is CCOC(=O)c1c(SC(=O)/C=C/c2ccccc2)n(-c2ccccc2)c(=S)n(-c2ccccc2)c1=O
> 100 µM
